Please go through the items and note down their IC50.
# Test System: CCK2R (Homo sapiens)
# Construct: expressed in transfected cells; host or cells: HEK 293T cells
# Sequence (P32239 1-447): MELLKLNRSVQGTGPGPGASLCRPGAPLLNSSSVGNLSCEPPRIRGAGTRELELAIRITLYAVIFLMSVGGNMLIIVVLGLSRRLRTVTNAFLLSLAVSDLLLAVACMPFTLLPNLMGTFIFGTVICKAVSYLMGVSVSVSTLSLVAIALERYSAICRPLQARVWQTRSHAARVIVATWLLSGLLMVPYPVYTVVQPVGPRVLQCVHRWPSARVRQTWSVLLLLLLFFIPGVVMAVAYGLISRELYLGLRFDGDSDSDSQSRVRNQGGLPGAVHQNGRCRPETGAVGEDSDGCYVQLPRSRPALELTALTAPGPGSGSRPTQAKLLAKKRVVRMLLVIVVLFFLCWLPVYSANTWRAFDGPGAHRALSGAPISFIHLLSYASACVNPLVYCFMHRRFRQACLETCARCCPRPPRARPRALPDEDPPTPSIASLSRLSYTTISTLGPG
# Assay Name: Competitive binding (FACS) on CCK2R-transfected HEK 293T cells with Cy5-labeled F11N derivative
# Study Conditions: HEK 293T transfected, Cy5-labeled F11N derivative competitive ligand (Table 4); read-out: CCK2R IC50

Suppose we examine the compound C[C@@H](O)[C@H](NC(=O)[C@@H]1CSSC[C@H](NC(=O)[C@@H](Cc2ccccc2)NC(=O)CCCCCNC(=O)CCCCCNC(=O)[C@H](CCCCNC(=O)[C@H](CCC(=O)O)NC(=O)c2cccc(NC(=O)N[C@@H]3CN(C4CCCCC4)c4ccccc4N(CC(=O)C(C)(C)C)C3=O)c2)NC(=O)CCC(C(=O)O)N2CCN(CC(=O)O)CCN(CC(=O)O)CCN(CC(=O)O)CC2)C(=O)N[C@@H](Cc2ccc(O)cc2)C(=O)N[C@H](Cc2c[nH]c3ccccc23)C(=O)N[C@@H](CCCCN)C(=O)N[C@@H]([C@@H](C)O)C(=O)N1)C(=O)O (some centres unmarked) [Compound I-72] ; what IC50 value has been reported?
0.00553 µM

Suppose we examine the compound C[C@@H](O)[C@H](NC(=O)[C@@H]1CSSC[C@H](NC(=O)[C@@H](Cc2ccccc2)C(=O)C(=O)COCCOCCNC(=O)[C@H](CCCCCC(=O)COCCOCCNC(=O)CC[C@H](NC(=O)[C@H](CO)NC(=O)c2cccc(NC(=O)NN3CC(C4CCCCC4)c4ccccc4N(CC(=O)C(C)(C)C)C3=O)c2)C(=O)O)NC(=O)CN2CCN(CC(=O)O)CCN(CC(=O)O)CCN(CC(=O)O)CC2)C(=O)N[C@@H](Cc2ccc(O)cc2)C(=O)N[C@H](Cc2c[nH]c3ccccc23)C(=O)N[C@@H](CCCCN)C(=O)N[C@@H]([C@@H](C)O)C(=O)C1)C(=O)O (some centres unmarked) [Compound I-77] ; what IC50 value has been reported?
0.0194 µM

---

# Assay Name: in vivo
# Study Conditions: BALB/c nude, mouse, in vivo, iv, total radioactivity, % ID/g Stomach
Please go through the items and note down their tissue uptake at 24 h.
# value in %ID/g; strip the unit string

Suppose we examine the compound C[C@@H](O)[C@H](NC(=O)[C@@H]1CSSC[C@H](NC(=O)[C@@H](Cc2ccccc2)NC(=O)CN2CCN(CC(=O)O)CCN(CC(=O)O)CCN(CC(=O)O)CC2)C(=O)N[C@@H](Cc2ccc(O)cc2)C(=O)N[C@H](Cc2c[nH]c3ccccc23)C(=O)N[C@@H](CCCCN)C(=O)N[C@@H]([C@@H](C)O)C(=O)N1)C(=O)O [^177Lu-C-1, metal not drawn, reference compound] ; what tissue uptake at 24 h value has been reported?
0.59

Suppose we examine the compound C[C@@H](O)[C@H](NC(=O)[C@@H]1CSSC[C@H](NC(=O)[C@@H](Cc2ccccc2)NC(=O)COCCOCCNC(=O)COCCOCCNC(=O)[C@H](CCCCNC(=O)c2cccc(NC(=O)N[C@@H]3CN(C4CCCCC4)c4ccccc4N(CC(=O)C(C)(C)C)C3=O)c2)NC(=O)CN2CCN(CC(=O)O)CCN(CC(=O)O)CCN(CC(=O)O)CC2)C(=O)N[C@@H](Cc2ccc(O)cc2)C(=O)N[C@H](Cc2c[nH]c3ccccc23)C(=O)N[C@@H](CCCCN)C(=O)N[C@@H]([C@@H](C)O)C(=O)N1)C(=O)O [Compound 177Lu-I-39, metal not drawn] ; what tissue uptake at 24 h value has been reported?
4.63

Suppose we examine the compound C[C@@H](O)[C@H](NC(=O)[C@@H]1CSSC[C@H](NC(=O)[C@@H](Cc2ccccc2)NC(=O)COCCOCCNC(=O)[C@H](CCCCNC(=O)c2cccc(NC(=O)N[C@@H]3CN(C4CCCCC4)c4ccccc4N(CC(=O)C(C)(C)C)C3=O)c2)NC(=O)CN2CCN(CC(=O)O)CCN(CC(=O)O)CCN(CC(=O)O)CC2)C(=O)N[C@@H](Cc2ccc(O)cc2)C(=O)N[C@H](Cc2c[nH]c3ccccc23)C(=O)N[C@@H](CCCCN)C(=O)N[C@@H]([C@@H](C)O)C(=O)N1)C(=O)O [Compound 177Lu-I-37, metal not drawn] ; what tissue uptake at 24 h value has been reported?
2.58

Suppose we examine the compound CCCC[C@H](NC(=O)[C@H](Cc1c[nH]c2ccccc12)NC(=O)CNC(=O)[C@H](Cc1ccc(O)cc1)NC(=O)[C@H](C)NC(=O)[C@@H](CCC(=O)O)NC(=O)[C@@H](CCC(=O)O)NC(=O)[C@@H](CCC(=O)O)NC(=O)[C@@H](CCC(=O)O)NC(=O)[C@@H](CCC(=O)O)NC(=O)[C@@H](CCC(=O)O)NC(=O)CN1CCN(CC(=O)O)CCN(CC(=O)O)CCN(CC(=O)O)CC1)C(=O)N[C@@H](CC(=O)O)C(=O)N[C@@H](Cc1ccccc1)C(N)=O [^177Lu-C-2, metal not drawn, reference compound] ; what tissue uptake at 24 h value has been reported?
0.17

Suppose we examine the compound C[C@@H](O)[C@H](NC(=O)[C@@H]1CSSC[C@H](NC(=O)[C@@H](Cc2ccccc2)NC(=O)[C@H](CCCCNC(=O)c2cccc(NC(=O)N[C@@H]3CN(C4CCCCC4)c4ccccc4N(CC(=O)C(C)(C)C)C3=O)c2)NC(=O)COCCOCCNC(=O)CN2CCN(CC(=O)O)CCN(CC(=O)O)CCN(CC(=O)O)CC2)C(=O)N[C@@H](Cc2ccc(O)cc2)C(=O)N[C@H](Cc2c[nH]c3ccccc23)C(=O)N[C@@H](CCCCN)C(=O)N[C@@H]([C@@H](C)O)C(=O)N1)C(=O)O [^177Lu-I-35, metal not drawn] ; what tissue uptake at 24 h value has been reported?
3.09

Suppose we examine the compound CC(C)(C)C(=O)CN1C(=O)[C@H](NC(=O)Nc2cccc(C(=O)N[C@@H](CCC(=O)N[C@@H](CCC(=O)N[C@@H](CCC(=O)N[C@@H](CCCCNC(=O)COCCOCCNC(=O)COCCOCCNC(=O)CCC(C(=O)O)N3CCN(CC(=O)O)CCN(CC(=O)O)CCN(CC(=O)O)CC3)C(N)=O)C(=O)O)C(=O)O)C(=O)O)c2)CN(C2CCCCC2)c2ccccc21 (stereo partly drawn) [^177Lu-C-4, metal not drawn, reference compound] ; what tissue uptake at 24 h value has been reported?
0.03
